- Target of assay: guinea pig Opioid, Kappa 1 Receptor (OpiateK), OPRK1 (gene 100135587)
- Test description: NVS_GPCR_gOpiateK: NovaScreen (NVS) G Protein-Coupled Receptor Assay for guinea pig Opioid, Kappa 1 Receptor (OpiateK) (AID 2283252);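 further: radioligand displacement from kappa opioid receptor in guinea pig cerebellar membranes; active means reduced radioligand binding relative to DMSO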
Records with an inconclusive call do not appear. The source made the active and inactive calls. How the source made its calls: active means hit-call score of the fitted dose curve at least 0.9, where 1 is the maximum; inconclusive means response in the unintended direction; inactive means score below 0.9.
Measurement kind: AC50

{"Compound": "Nc1ccc(Nc2ccccc2)cc1", "AC50": "20.6 µM (active)"}
{"Compound": "CN(C)c1ccc(N=NS(=O)(=O)O)cc1", "AC50": "8.61 µM (active)"}
{"Compound": "O=c1[nH]c2ccc(S(=O)CCN3CCC(Cc4ccc(F)cc4)CC3)cc2o1 (stereo not drawn)", "AC50": "inactive"}
{"Compound": "Cc1[nH]cnc1C[C@H]1CCc2c(C)c3ccccc3n2C1=O", "AC50": "inactive"}
{"Compound": "CCn1nc(Cc2ccccc2)cc1C1CCN(C[C@H]2C[C@H](N(C)[C@@H](C(=O)O)C(C)C)C[C@@H]2c2cccc(F)c2)CC1", "AC50": "8.5 µM (active)"}
{"Compound": "Cn1c(=O)cc(Oc2ccc(F)cc2F)c2cnc(NCC(C)(C)O)nc21", "AC50": "inactive"}
{"Compound": "COCCOc1cc2cc(C(=O)NC3CCN(C(C)C)CC3)n(CC(=O)Nc3ccc(Cl)cn3)c2cn1", "AC50": "inactive"}

// switching to the query compound
Task item: Give the measured AC50 of Cc1c(-c2cccnc2)c2ccccc2n1CCCCC(=O)O .
Reply: 14.7 µM (active)

====

- Read-out: Cyclin D1 (CCND1), CCND1 (gene 595)
- Test description: LTEA_HepaRG_CCND1: Life Technologies and Expression Analysis (LTEA) Assay for Cyclin D1 (CCND1) using HepaRG (AID 2283451)
- Test conditions: mRNA level, 48 h; actives raise or lower the signal
- Protocol: LTEA_HepaRG is a cell based, multiplexed-readout assay that uses HepaRG, a human liver cell line, with measurements taken at 48 hours after chemical dosing on a 96-well plate.LTEA_HepaRG_CCND1 is one of 102 assay component(s) measured in the LTEA HepaRG cell culture assay. It is a marker of Cell proliferation, survival, death.Data from the assay component LTEA_HepaRG_CCND1 was analyzed into 1 endpoint. […]
Calls of active or inactive are those of the source. Rule for the calls: active = hit-call score of the fitted dose curve at least 0.9, where 1 is the maximum; inactive = score below 0.9.
Returns: one label drawn from TRUE (active), FALSE (inactive)

Look over these answered cases.
{"Compound": "CC(C)=CCCC(C)=CC=O", "Category": "FALSE"}
{"Compound": "Fc1ccccc1[C@@H](F)COC1CCC(Nc2ncnc3[nH]ncc23)CC1 (stereo partly drawn)", "Category": "TRUE"}
{"Compound": "COC(=O)c1c(Cl)c(Cl)c(C(=O)OC)c(Cl)c1Cl", "Category": "FALSE"}
{"Compound": "CCOCCO", "Category": "FALSE"}
{"Compound": "CC(C)CCO", "Category": "FALSE"}
{"Compound": "Cc1ccc(O)cc1", "Category": "FALSE"}

Task item: # fetch the recorded call for Cc1ccc(C)c(O)c1 here
Reply: FALSE

Task item: Same lookup for CC(C)=CCC/C(C)=C\CO , please.
Reply: FALSE

Task item: Same lookup for CN(C)c1ccc(Cc2ccc(N(C)C)cc2)cc1 , please.
Reply: FALSE

Task item: Same lookup for CCCN(C1CCN(C(=O)C2CCNCC2)CC1)[C@@H]1CCc2ccc(OC)cc2C1 , please.
Reply: TRUE

Task item: Same lookup for Cn1c(=O)c2c(ncn2C)n(C)c1=O , please.
Reply: FALSE

Task item: Same lookup for CC(C)CCCCCCCOC(=O)CCCCC(=O)OCCCCCCCC(C)C , please.
Reply: FALSE

Task item: Same lookup for COC(=O)CC(=O)OC , please.
Reply: FALSE

====

- Read-out: Human Leukocyte Antigen - DR isotype (HLADR), HLA-DRA (gene 3122)
- Test description: BSK_3C_HLADR: BioMAP Diversity Plus: 3C Assay for Human Leukocyte Antigen - DR isotype (HLADR) Biomarker Activity (AID 2283019)
- Test conditions: primary human endothelial cells (HUVEC); actives raise or lower the signal
Calls of active or inactive are those of the source. How the source made its calls: active means hit-call score of the fitted dose curve at least 0.9, where 1 is the maximum; inactive means score below 0.9.
Returns: one label drawn from true (active), false (inactive)

Task item: # fetch the recorded call for CCOc1cccc(-n2cc(C(=O)N3CCN(c4cc(C(=O)O)c5ccccc5c4)CC3)nc2-c2ccc(C)cc2)c1 here
Reply: true

Task item: Same lookup for Cc1c(-c2cccnc2)c2ccccc2n1CCCCC(=O)O , please.
Reply: false

Task item: Same lookup for CC(C)=CCC/C(C)=C\CO , please.
Reply: false

Task item: Same lookup for CC(=O)OC[C@H]1O[C@@](COC(C)=O)(O[C@H]2O[C@H](COC(C)=O)[C@@H](OC(C)=O)[C@H](OC(C)=O)[C@H]2OC(C)=O)[C@@H](OC(C)=O)[C@@H]1OC(C)=O , please.
Reply: false

====

- Read-out: MYC, MYC (gene 4609)
- Test description: LTEA_HepaRG_MYC: Life Technologies and Expression Analysis (LTEA) Assay for MYC using HepaRG (AID 2283518)
- Test conditions: mRNA level, 48 h; actives raise or lower the signal
Active and inactive are the calls of the source. The calls were made as follows: active = hit-call score of the fitted dose curve at least 0.9, where 1 is the maximum; inactive = score below 0.9.
Returns: one label drawn from active, inactive

Look over these answered cases.
{"Compound": "Cc1ccc(N)cc1O", "Category": "inactive"}
{"Compound": "CCCCC(CC)COC(=O)CCCCCCCCC(=O)OCC(CC)CCCC (stereo not given)", "Category": "inactive"}
{"Compound": "CC(O)CN(CCN(CC(C)O)CC(C)O)CC(C)O (stereo not given)", "Category": "inactive"}
{"Compound": "COc1ccc(/C=C/S(=O)(=O)NC(=O)c2ccc(C)cc2Cl)cc1", "Category": "inactive"}
{"Compound": "O=C(CCCCCCCCc1cccnc1)N1CCC(C=C(c2ccccc2)c2ccccc2)CC1", "Category": "active"}
{"Compound": "COC(=O)c1ccccc1O", "Category": "inactive"}

Task item: # fetch the recorded call for CC/C(=C\C(=N/O)C(N)=O)C(C)[N+](=O)[O-] (stereo not given) here
Reply: inactive

Task item: Same lookup for CCOCCOCCOCCO , please.
Reply: inactive

Task item: Same lookup for CC[C@H]1OC(=O)[C@H](C)[C@@H](O[C@H]2C[C@@](C)(OC)[C@@H](O)[C@H](C)O2)[C@H](C)[C@@H](O[C@@H]2O[C@H](C)C[C@H](N(C)C)[C@H]2O)[C@](C)(O)C[C@@H](C)C(=O)[C@H](C)[C@@H](O)[C@]1(C)O , please.
Reply: inactive

Task item: Same lookup for CCC(C)(C)C(=O)O[C@H]1C[C@@H](C)C=C2C=C[C@H](C)[C@H](CC[C@@H]3C[C@@H](O)CC(=O)O3)[C@H]21 , please.
Reply: inactive

====

- System: guinea pig Muscarinic, Peripheral (Mperiperal) Receptor, Non-selective Binding, gene 100379235
- Test description: NVS_GPCR_gMPeripheral_NonSelective: NovaScreen (NVS) G Protein-Coupled Receptor Assay for guinea pig Muscarinic, Peripheral (Mperiperal) Receptor, Non-selective Binding (AID 2283250)
Inconclusive results are not listed. Calls of active or inactive are those of the source. Rule for the calls: active = hit-call score of the fitted dose curve at least 0.9, where 1 is the maximum; inconclusive = response in the unintended direction; inactive = score below 0.9.
Returns: one label drawn from Y for active, N for inactive

{"Compound": "CNS(=O)(=O)c1cc(C(=O)N2CCC(CCN3C4CCC3CC(n3c(C)nc5ccccc53)C4)(c3cccc(F)c3)CC2)c(Cl)cc1F (stereo unspecified)", "Category": "Y"}
{"Compound": "CC[C@H]1CC[C@H](NCc2cc3c(cc2OC)[C@H]2C[C@H]2C(=O)N3C)[C@H](c2ccccc2)N1", "Category": "Y"}
{"Compound": "CCCN(C1CCN(C(=O)C2CCNCC2)CC1)[C@@H]1CCc2ccc(OC)cc2C1", "Category": "Y"}
{"Compound": "Cc1[nH]cnc1C[C@H]1CCc2c(C)c3ccccc3n2C1=O", "Category": "Y"}

Task item: # fetch the recorded call for COc1cccc(-c2ccc(/C=C\CN3CCCCCC3)cc2Cl)c1 here
Reply: Y

Task item: Same lookup for Nc1ccc(Nc2ccccc2)cc1 , please.
Reply: N

====

- Read-out: Interleukin-8 (IL8), CXCL8 (gene 3576)
- Test description: BSK_LPS_IL8: BioMAP Diversity Plus: LPS Assay for Interleukin-8 (IL8) Biomarker Activity (AID 2283078)
- Test conditions: primary human HUVEC with PBMC; actives raise or lower the signal
The source made the active and inactive calls. Rule for the calls: active = hit-call score of the fitted dose curve at least 0.9, where 1 is the maximum; inactive = score below 0.9.
Returns: one label drawn from active, inactive

{"Molecule": "CCc1cc(SCc2sc(-c3ccc(C(F)(F)F)cc3)nc2CN2CCN(c3ccc(OC)cc3)CC2)ccc1OCC(=O)O", "Category": "active"}
{"Molecule": "CC(C)CCCCCCOC(=O)c1ccc(C(=O)OCCCCCCC(C)C)c(C(=O)OCCCCCCC(C)C)c1", "Category": "inactive"}
{"Molecule": "Cc1ccc(O)cc1", "Category": "inactive"}
{"Molecule": "CCN(C(=O)c1cc(C)cc(OC[C@H](C)Nc2ccncc2)c1)C(C)C", "Category": "inactive"}

Task item: # fetch the recorded call for O=C(O)c1cccc(N(Cc2cccnc2)c2ccc(OC(F)F)c(OC(F)F)c2)c1 here
Reply: active

Task item: Same lookup for COCCOCCOCCOC , please.
Reply: inactive

Task item: Same lookup for O=C(NS(=O)(=O)/C=C/c1ccccc1)c1ccc(F)cc1Cl , please.
Reply: inactive

Task item: Same lookup for CNS(=O)(=O)c1cc(C(=O)N2CCC(CCN3C4CCC3CC(n3c(C)nc5ccccc53)C4)(c3cccc(F)c3)CC2)c(Cl)cc1F (stereo unspecified) , please.
Reply: active

Task item: Same lookup for O=C(O)c1cc(N=Nc2ccc(S(=O)(=O)Nc3ccccn3)cc2)ccc1O , please.
Reply: inactive

Task item: Same lookup for C[C@](N)(Cc1ccc(O)c(O)c1)C(=O)O , please.
Reply: inactive

Task item: Same lookup for O=C1CCC(N2C(=O)c3ccccc3C2=O)C(=O)N1 (stereo unspecified) , please.
Reply: inactive

Cited source: PubChem BioAssay (EPA / NIEHS)
